system: Escherichia coli TOP10; assay: shrunken log2 fold change of peptide-encoding DNA abundance (4.5 h post-induction vs induction); higher = less antimicrobial activity (less host growth inhibition); conditions: time post-induction: 4.5 h; library: site-saturation at positions 5, 18, 19, 20
Tag: Y if measured shrunken log2 fold change is not below -0.07, N if it is.

Given the entry "RRIRTRPPRLPRPRPRPNGHPRP" , answer whether its shrunken log2 fold change meets or surpasses -0.07. Y

Tell me whether shrunken log2 fold change is at least -0.07 here: "RRIRVRPPRLPRPRPRPMYGPRP" N

Quick check, shrunken log2 fold change >= -0.07? "RRIRFRPPRLPRPRPRPNDSPRP" Y

Dear colleague, could you confirm whether "RRIRCRPPRLPRPRPRPNCCPRP" has shrunken log2 fold change at or above -0.07? Y

Kindly determine if shrunken log2 fold change recorded for "RRIRQRPPRLPRPRPRPAGTPRP" is above or exactly -0.07. Y

====

system: Escherichia coli TOP10; experiment: shrunken log2 fold change of peptide-encoding DNA abundance (4.5 h post-induction vs induction); higher = less antimicrobial activity (less host growth inhibition); conditions: time post-induction: 4.5 h; library: site-saturation at positions 5, 18, 19, 20
# label = MET if shrunken log2 fold change >= -0.08 else NOT MET

Could you please find out whether "RRIRTRPPRLPRPRPRPKRRPRP" has shrunken log2 fold change that meets -0.08 or exceeds it? MET

Record "RRIRKRPPRLPRPRPRPFEPPRP" ; criterion: shrunken log2 fold change no lower than -0.08. Met? MET

Check if shrunken log2 fold change >= -0.08 (inclusive). Item: "RRIRKRPPRLPRPRPRPQSGPRP" MET

Entry "RRIRTRPPRLPRPRPRPNMTPRP" : is its shrunken log2 fold change no less than -0.08? NOT MET

shrunken log2 fold change >= -0.08 for "RRIRDRPPRLPRPRPRPMVCPRP" ? MET

Could you tell me if the measured shrunken log2 fold change of "RRIRHRPPRLPRPRPRPHKIPRP" reaches -0.08 or more? NOT MET

Is it the case that "RRIRQRPPRLPRPRPRPNWWPRP" has shrunken log2 fold change reaching or exceeding -0.08? MET

Please indicate if the recorded shrunken log2 fold change for "RRIRKRPPRLPRPRPRPNFNPRP" meets or exceeds -0.08. MET

Please check the record "RRIRKRPPRLPRPRPRPQDLPRP" and state if its shrunken log2 fold change is at or above -0.08. MET

Hi, just wondering whether "RRIRWRPPRLPRPRPRPCSLPRP" shows shrunken log2 fold change of -0.08 or higher. MET

Decide: shrunken log2 fold change of "RRIRYRPPRLPRPRPRPSIPPRP" >= -0.08? NOT MET

// inclusive: shrunken log2 fold change at least -0.08? input: "RRIRGRPPRLPRPRPRPDTMPRP" MET

Quick check: does "RRIRRRPPRLPRPRPRPNQEPRP" have shrunken log2 fold change greater than or equal to -0.08? MET

Given "RRIRIRPPRLPRPRPRPIEEPRP" , state whether its shrunken log2 fold change is at least -0.08. MET

Would you say "RRIRNRPPRLPRPRPRPISRPRP" shows shrunken log2 fold change at minimum -0.08? NOT MET

Form field: shrunken log2 fold change at least -0.08? Entry: "RRIRTRPPRLPRPRPRPMSAPRP" NOT MET

Does the reported shrunken log2 fold change for "RRIRARPPRLPRPRPRPRDYPRP" fall at or above the -0.08 mark? MET

Given "RRIRRRPPRLPRPRPRPCMVPRP" , state whether its shrunken log2 fold change is at least -0.08. MET

Record "RRIRHRPPRLPRPRPRPVDRPRP" ; criterion: shrunken log2 fold change no lower than -0.08. Met? NOT MET

Quick check, shrunken log2 fold change >= -0.08? "RRIRHRPPRLPRPRPRPPIVPRP" NOT MET

====

tested on: Escherichia coli TOP10; assay: shrunken log2 fold change of peptide-encoding DNA abundance (4.5 h post-induction vs induction); higher = less antimicrobial activity (less host growth inhibition); conditions: time post-induction: 4.5 h; library: site-saturation at positions 5, 18, 19, 20
measure name: shrunken log2 fold change
Give your answer as a number; write no unit.

Please give the measured shrunken log2 fold change for this sequence: "RRIRCRPPRLPRPRPRPQWYPRP" -0.321

Entry "RRIRWRPPRLPRPRPRPGQAPRP" : reported shrunken log2 fold change = ? 1.06

Would you mind telling me what shrunken log2 fold change value was observed for "RRIRYRPPRLPRPRPRPLCNPRP" ? -0.0925

# lookup: shrunken log2 fold change of "RRIRCRPPRLPRPRPRPNLKPRP" -0.585

Which value of shrunken log2 fold change has been reported for "RRIRPRPPRLPRPRPRPFLHPRP" in the records? -0.273

Query (sequence): "RRIRMRPPRLPRPRPRPTHYPRP" ; field requested: shrunken log2 fold change 0.226

Dear colleague, I am looking for the recorded shrunken log2 fold change of the following sequence: "RRIRGRPPRLPRPRPRPFDHPRP" -0.0514

Which shrunken log2 fold change reading was recorded for the sequence "RRIRERPPRLPRPRPRPCWLPRP" ? -0.0175

// shrunken log2 fold change lookup, key: "RRIRNRPPRLPRPRPRPICQPRP" -0.0999

Any idea what its shrunken log2 fold change is? The sequence is "RRIRFRPPRLPRPRPRPWTRPRP" -0.0481

Which shrunken log2 fold change reading was recorded for the sequence "RRIRQRPPRLPRPRPRPYIEPRP" ? -0.45

Could you tell me which shrunken log2 fold change is on file for "RRIRRRPPRLPRPRPRPIVQPRP" ? -0.0768

# lookup: shrunken log2 fold change of "RRIRCRPPRLPRPRPRPKNFPRP" -0.555

Query (sequence): "RRIRNRPPRLPRPRPRPSVWPRP" ; field requested: shrunken log2 fold change 0.228

Give the measured shrunken log2 fold change of "RRIRKRPPRLPRPRPRPEIFPRP" . 0.368

May I ask what shrunken log2 fold change has been recorded for "RRIRYRPPRLPRPRPRPCCFPRP" ? -0.709

// shrunken log2 fold change lookup, key: "RRIRWRPPRLPRPRPRPSYDPRP" -0.256

Please report the recorded shrunken log2 fold change for "RRIRMRPPRLPRPRPRPFSLPRP" . -0.282

Item "RRIRPRPPRLPRPRPRPHQCPRP" has what recorded shrunken log2 fold change? -0.0701

Suppose we examine the sequence "RRIRSRPPRLPRPRPRPLCKPRP" ; what shrunken log2 fold change value has been reported? -0.137

Can you share its shrunken log2 fold change? I mean this sequence: "RRIRYRPPRLPRPRPRPDSEPRP" -0.0121

Can you look up the measured shrunken log2 fold change of "RRIRSRPPRLPRPRPRPMHTPRP" for me? -0.139

Consider the sequence shown here: "RRIRWRPPRLPRPRPRPGHRPRP" What is its recorded shrunken log2 fold change? 0.315

Sample "RRIRRRPPRLPRPRPRPFYPPRP" — what was its shrunken log2 fold change? -0.189

So what does the record say about shrunken log2 fold change for "RRIRMRPPRLPRPRPRPNETPRP" ? -0.0123

Please look up its shrunken log2 fold change: "RRIRVRPPRLPRPRPRPCPNPRP" -0.245

shrunken log2 fold change for "RRIRWRPPRLPRPRPRPFLPPRP" ? -0.687

====

tested on: Escherichia coli TOP10; assay: shrunken log2 fold change of peptide-encoding DNA abundance (4.5 h post-induction vs induction); higher = less antimicrobial activity (less host growth inhibition); details: time post-induction: 4.5 h; library: site-saturation at positions 5, 18, 19, 20;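 further: peptides expressed intracellularly from a pBAD plasmid library in pooled LB shake-flask culture, induced with 0.3% L-arabinose, DNA abundance read by NGS, three biological replicates, DESeq2 with apeglm shrinkage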
Each record gets a class by shrunken log2 fold change: band 1 (below -0.2), band 2 (-0.2 to below 0.002), band 3 (0.002 or more)

Class (by measured shrunken log2 fold change) for "RRIRNRPPRLPRPRPRPQHVPRP" band 2

// bin(item) where item = "RRIRCRPPRLPRPRPRPVNFPRP" band 1

Hey, which category is "RRIRPRPPRLPRPRPRPWTCPRP" in, do you know? band 2

Hello team, could you let me know which band the following sequence falls into: "RRIRYRPPRLPRPRPRPKWKPRP" band 2

Lab note: sort "RRIRNRPPRLPRPRPRPPPLPRP" into the matching shrunken log2 fold change band. band 3

Hi, small favor: classify "RRIRIRPPRLPRPRPRPDHSPRP" by its shrunken log2 fold change when you get a moment. band 2

For this sequence, which bin applies? "RRIRQRPPRLPRPRPRPEMKPRP" band 2

Please let me know in which category the item "RRIRHRPPRLPRPRPRPPVCPRP" belongs. band 2

Into which bin does this sequence go? "RRIRVRPPRLPRPRPRPGEDPRP" band 3

Lab note: which band did "RRIRNRPPRLPRPRPRPGLEPRP" land in? band 2

Please indicate the class for "RRIRQRPPRLPRPRPRPNYGPRP" based on its shrunken log2 fold change. band 1

Kindly state the category for this sequence: "RRIRTRPPRLPRPRPRPTPTPRP" band 3

Please indicate the class for "RRIRSRPPRLPRPRPRPETCPRP" based on its shrunken log2 fold change. band 3

# classify by shrunken log2 fold change band: "RRIRARPPRLPRPRPRPSREPRP" band 3

Which bin should I file "RRIRTRPPRLPRPRPRPHKHPRP" under? band 1

Class for "RRIRPRPPRLPRPRPRPWQPPRP" ? band 2

Which class does "RRIRIRPPRLPRPRPRPQIAPRP" fall in? band 2

Looking at "RRIRKRPPRLPRPRPRPSDVPRP" , which class would you pick? band 2

GET /class?item= "RRIRWRPPRLPRPRPRPDAWPRP" band 3

Bin? "RRIRYRPPRLPRPRPRPTWFPRP" band 1

Field: class (shrunken log2 fold change) — entry: "RRIRVRPPRLPRPRPRPYWTPRP" band 1

Hi, small favor: classify "RRIRWRPPRLPRPRPRPYIYPRP" by its shrunken log2 fold change when you get a moment. band 1

Which bin should I file "RRIRQRPPRLPRPRPRPNQPPRP" under? band 2

Could you place "RRIRDRPPRLPRPRPRPINYPRP" in its proper category? Many thanks. band 3

Kindly identify the class of "RRIRKRPPRLPRPRPRPKLVPRP" . band 3

Exam item: assign "RRIRSRPPRLPRPRPRPPCPPRP" to the correct category. band 3

Category lookup for the sequence "RRIRWRPPRLPRPRPRPPHLPRP" band 3

Which bin, given its shrunken log2 fold change, does "RRIRIRPPRLPRPRPRPSMDPRP" occupy? band 1

Just checking, what class would you give "RRIRIRPPRLPRPRPRPDQQPRP" here? band 3

Returns: class label. Input: "RRIRPRPPRLPRPRPRPMWNPRP" band 1

Tag the class for "RRIRCRPPRLPRPRPRPSTGPRP" band 1

Any idea which band "RRIRQRPPRLPRPRPRPCNYPRP" is in? band 2

Please indicate the class for "RRIRNRPPRLPRPRPRPQCQPRP" based on its shrunken log2 fold change. band 2

# bin lookup: classify "RRIRLRPPRLPRPRPRPCRTPRP" by its shrunken log2 fold change band 1

Categorize the following entry: "RRIRMRPPRLPRPRPRPYIAPRP" band 2

Into which bin does this sequence go? "RRIRMRPPRLPRPRPRPMTAPRP" band 3

Tag the class for "RRIRKRPPRLPRPRPRPQQIPRP" band 1

Given "RRIRQRPPRLPRPRPRPRKIPRP" , name the class its shrunken log2 fold change places it in. band 2

For "RRIRRRPPRLPRPRPRPFCMPRP" , which shrunken log2 fold change bin applies? band 3

State the class of the sequence shown: "RRIRTRPPRLPRPRPRPCTMPRP" band 2

Consider "RRIRGRPPRLPRPRPRPAYYPRP" . To which shrunken log2 fold change class does it belong? band 2

# credit: the supplement of paper PMC9112550
